All values here come from the supplement of paper PMC10201428.

Recorded relative integration efficiency (log2) values for a group of sequences are listed next.
- Test system: VchCAST RNA-guided transposition machinery (E. coli BL21(DE3) host, lacZ target)
- protocol: relative integration efficiency (T-RL orientation) vs wild-type transposon end (log2 (normalized fold change)); transposon end mutated: right end (5 bp flank + 75 bp right end); higher = more efficient transposition
observationType: relative integration efficiency (log2)

- ACATTTGTTGATACAACCATAATTTGATAATTACACCCATAATATGATAATTATCACACCCATAATATGATATTGCCTCTGATCATAGTCAGACCAACATTGCTACGACCCGTATTCGCACCGACAC: -0.651
- ACATTTGTTGATACAACCATAAAATGATAATTAATAATTATTTATAATCAGCCACCCATAAATTGATAATTATCACACCCATAAATTGATATTGCCTCTGATCATAGTCAGACCAACATTGCTACGA: -3.35
- ACATTTGTTGATACAACCATAAAATGATAATTACACCCATAAATTGATAATTATCACACCCAGCCCGGTCGCGGTAAGAGGATCATAGTCAGACCAACATTGCTACGACCCGTATTCGCACCGACAC: -0.344
- ACATTTGTTGATACAACCATAAAATGGTAATTACACCCCTAAATTGATAATTATCACACCCAATTTAACTATAACGCTCTGATCATAGTCAGACCAACATTGCTACGACCCGTATTCGCACCGACAC: -3.07
- ACATTTGTTGATACAACCATATATTGATATCTCCAACCATAAAGTGATATTTATCACAACCATAAGTTGATATTTTCTCTGATCATAGTCAGACCAACATTGCTACGACCCGTATTCGCACCGACAC: 0.261
- ACATTTGTTGATACAACCATAAAATGATAATTACACCCATAAATTGATAATTATCACACCCATAAATTGATATTGCCTCTGATAACTTGGTATAGCATACATTATACGAACGGTATCGCACCGACAC: -0.811
- ACATTTGTTGATACAACCATAAAATGATAATTACACCCATAAATTGATAATTATCACACCCATAAATTGATATTGCCTCTGACTTAAACAAAATATATCTTGCCCGCCTTACAAATAGCACCGACAC: 0.417
- ACATTTGTTGATACAACCATAAAATGATAATTAATACACCCATAAATTGATAATTATCACACCCATAAATTGATATTGCCTCTGATCATAGTCAGACCAACATTGCTACGACCCGTATTCGCACCGA: -3.47
- ACATTTGTTGATACACCCATAAATTGATAATTACAACCATAAAATGATAATTATCACAACCATAAAGTGATATTTACTCTGATCATAGTCAGACCAACATTGCTACGACCCGTATTCGCACCGACAC: -0.736
- ACATTTGTTGATACCACCATCAAATGATAATTACACCCATACATTGATAATTATCACACCCAATTTAACTATAACGCTCTGATCATAGTCAGACCAACATTGCTACGACCCGTATTCGCACCGACAC: -3.87

* * *

- System: VchCAST RNA-guided transposition machinery (E. coli BL21(DE3) host, lacZ target)
- protocol: relative integration efficiency (T-RL orientation) vs wild-type transposon end (log2 (normalized fold change)); transposon end mutated: right end (5 bp flank + 75 bp right end); higher = more efficient transposition
observationType: relative integration efficiency (log2)

• CAAAATGTAAAAAAAACCATACGTTGATTTTACGAAACCATACGCTGAAATAAAAACAACCATACCTTGAAATTGCTTATGATCATAGTCAGACCAACATTGCTACGACCCGTATTCGCACCGACAC = -6.15
• ACATTTGTTGATAACCAACGCCCCGTCGCCGGCACAAACGCCCGGTCGCCGGCTCAACAAACGCCCGGTCGCGGTACTCTGATCATAGTCAGACCAACATTGCTACGACCCGTATTCGCACCGACAC = -8.29
• ACATTTGTTGATACAACCATAACCGTCGCCGGCACAAACGCCCGGTCGCCGGCGACACAAACGCCCGGTCGCGGTAAGAGGATCATAGTCAGACCAACATTGCTACGACCCGTATTCGCACCGACAC = -7.77
• ACATTTGTAGAAAAAACCATACGTTGATTTTACGAAACCATACGCTGAAATAATCACACCCATAAATTGATATTGCCTCTGATCATAGTCAGACCAACATTGCTACGACCCGTATTCGCACCGACAC = -6.62
• ACATTTGTTGATACAACCATAAAGTGATATTTACAACCATAAAATGATAATTATCAGTGGGTATTTAACTATAACGCTCTGATCATAGTCAGACCAACATTGCTACGACCCGTATTCGCACCGACAC = -0.714
